Source listed as paper PMC5736175.

ASSAY: Plasma pharmacokinetics in satellite animals (LC-MS/MS), 60 min after i.m. dose
CONDITIONS: cynomolgus monkey, in vivo, 0.1 mg/kg, nM total compound in plasma from satellite animals, 60 min, 0.10 mg/kg i.m.; mean
MEASURED PARAMETER: concentration at 60 min (nM)
All answers are understood in nM, so give the number only.

Dear colleague, please send me the reported concentration at 60 min for c1cn(-c2cc(NC3=NC[C@@]4(CN5CCC4CC5)O3)ncn2)cn1 [BMS-933043] when you can. 65.9

====

ASSAY: Plasma pharmacokinetics in satellite animals (LC-MS/MS), 60 min after i.m. dose
CONDITIONS: cynomolgus monkey, in vivo, 0.03 mg/kg, nM total compound in plasma from satellite animals, 60 min, 0.03 mg/kg i.m.; mean
MEASURED PARAMETER: concentration at 60 min (nM)
All answers are understood in nM, so give the number only.

Dear colleague, please send me the reported concentration at 60 min for c1cn(-c2cc(NC3=NC[C@@]4(CN5CCC4CC5)O3)ncn2)cn1 [BMS-933043] when you can. 18.4
